Molecular target: Sentrin-specific protease 7 (Homo sapiens, UniProt Q9BQF6);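 further: Luminescence-based dose-response confirmation of ultra-high-throughput screening hits, measuring inhibition of SENP7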
Sequence (Q9BQF6 whole entry): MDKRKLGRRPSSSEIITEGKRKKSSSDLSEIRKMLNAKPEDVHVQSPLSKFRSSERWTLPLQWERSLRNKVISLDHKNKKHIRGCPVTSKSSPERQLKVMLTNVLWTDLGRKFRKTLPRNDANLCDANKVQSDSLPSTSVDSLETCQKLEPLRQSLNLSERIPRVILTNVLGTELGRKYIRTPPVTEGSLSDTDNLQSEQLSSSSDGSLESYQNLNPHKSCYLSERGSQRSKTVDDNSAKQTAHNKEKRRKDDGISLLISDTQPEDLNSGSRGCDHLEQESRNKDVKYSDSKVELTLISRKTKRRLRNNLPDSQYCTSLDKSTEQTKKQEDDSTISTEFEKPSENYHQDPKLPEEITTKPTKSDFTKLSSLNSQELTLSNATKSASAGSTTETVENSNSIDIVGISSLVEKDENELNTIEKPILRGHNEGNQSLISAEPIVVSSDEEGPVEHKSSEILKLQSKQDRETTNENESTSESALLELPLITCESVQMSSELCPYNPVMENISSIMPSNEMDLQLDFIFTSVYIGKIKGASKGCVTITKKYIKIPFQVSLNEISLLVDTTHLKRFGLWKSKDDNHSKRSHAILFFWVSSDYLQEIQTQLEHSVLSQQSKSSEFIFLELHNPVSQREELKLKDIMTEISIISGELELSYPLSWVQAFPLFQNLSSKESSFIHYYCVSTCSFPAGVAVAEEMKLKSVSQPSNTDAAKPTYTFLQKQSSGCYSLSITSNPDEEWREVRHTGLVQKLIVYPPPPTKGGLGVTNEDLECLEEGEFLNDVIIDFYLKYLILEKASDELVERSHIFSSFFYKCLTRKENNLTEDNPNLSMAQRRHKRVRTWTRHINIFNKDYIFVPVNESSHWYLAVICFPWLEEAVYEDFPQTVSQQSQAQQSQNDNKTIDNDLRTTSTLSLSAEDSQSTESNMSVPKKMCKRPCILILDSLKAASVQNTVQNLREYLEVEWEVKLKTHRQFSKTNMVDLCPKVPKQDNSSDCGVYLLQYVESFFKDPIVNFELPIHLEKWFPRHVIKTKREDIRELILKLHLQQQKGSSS
Format: functional
Calls of active or inactive are those of the source.
Provide the recorded IC50 for the entries that follow.

Challenge: If you can, please state the reported IC50 value of O=C(Nc1cccc(F)c1)Nc1ccc2c(c1)CCC2 .
Response given: 2.85 µM (active)

Challenge: Look up IC50: Nc1nnc2c(n1)CCCC2
Response given: 10.2 µM (active)

Challenge: What value of IC50 has been reported for the following compound? O=C(N/N=C/c1c(O)ccc2ccccc12)c1[nH]ncc1Br
Response given: 7.19 µM (active)

Challenge: Given the compound CCOc1ccc2nc(NC(=O)Nc3cccs3)sc2c1 , what is its reported IC50?
Response given: 8.66 µM (active)

###

Please provide measured AC50 for the entries that follow.

Challenge: Under Cytochrome P450 2D6 (Homo sapiens, UniProt P10635): AC50 value of CCNc1ncc2nc(-c3ccc(F)cc3)c(=O)n(CCOC)c2n1 ?
Response given: 3.98 µM (inconclusive)

Challenge: Item: O[C@@H](c1cc([C@@]23C[C@H]4CC[C@@H]2C[C@H](C4)C3)nc2c(Cl)cc(Cl)cc12)[C@@H]1CCCCN1 Test system: Cytochrome P450 2D6 (Homo sapiens, UniProt P10635) Read-out: AC50 Value: ?;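 further: CYP2D6 member of a cytochrome P450 panel assay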
Sequence (P10635 whole entry): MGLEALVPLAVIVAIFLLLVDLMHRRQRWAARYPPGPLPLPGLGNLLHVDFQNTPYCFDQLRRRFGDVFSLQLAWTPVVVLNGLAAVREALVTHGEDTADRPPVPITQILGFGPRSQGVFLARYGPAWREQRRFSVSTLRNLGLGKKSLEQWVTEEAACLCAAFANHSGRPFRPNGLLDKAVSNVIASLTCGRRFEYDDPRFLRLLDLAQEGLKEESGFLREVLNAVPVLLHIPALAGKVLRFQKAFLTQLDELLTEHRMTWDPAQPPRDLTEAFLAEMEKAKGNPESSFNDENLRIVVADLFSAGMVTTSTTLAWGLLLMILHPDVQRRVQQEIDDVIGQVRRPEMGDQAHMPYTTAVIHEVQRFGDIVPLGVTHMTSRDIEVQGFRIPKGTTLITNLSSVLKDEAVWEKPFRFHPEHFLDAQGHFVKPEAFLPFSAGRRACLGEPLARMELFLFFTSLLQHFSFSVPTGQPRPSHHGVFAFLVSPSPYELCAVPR
Response given: 3.16 µM (inconclusive)

Challenge: For the record COc1ccccc1-c1cc(NCc2cccnc2)ncn1 , what value of AC50 is listed for Cytochrome P450 2D6 (Homo sapiens, UniProt P10635)?
Response given: 20 µM (inconclusive)

Challenge: What measured AC50 is associated with CC(=O)OC[C@@H]1O[C@@H](O/N=C2/C[C@@H](O)[C@@H](O)[C@@H]3[C@@H]4C(=O)N(C[C@@H]5CCCO5)C(=O)[C@H]4CC[C@@H]23)[C@H](OC(C)=O)[C@H](OC(C)=O)[C@@H]1OC(C)=O on Cytochrome P450 2D6 (Homo sapiens, UniProt P10635)?
Response given: 3.98 µM (inconclusive)

###

Target: Cytochrome P450 2C19 (Homo sapiens, UniProt P33261)
Sequence (P33261 whole entry): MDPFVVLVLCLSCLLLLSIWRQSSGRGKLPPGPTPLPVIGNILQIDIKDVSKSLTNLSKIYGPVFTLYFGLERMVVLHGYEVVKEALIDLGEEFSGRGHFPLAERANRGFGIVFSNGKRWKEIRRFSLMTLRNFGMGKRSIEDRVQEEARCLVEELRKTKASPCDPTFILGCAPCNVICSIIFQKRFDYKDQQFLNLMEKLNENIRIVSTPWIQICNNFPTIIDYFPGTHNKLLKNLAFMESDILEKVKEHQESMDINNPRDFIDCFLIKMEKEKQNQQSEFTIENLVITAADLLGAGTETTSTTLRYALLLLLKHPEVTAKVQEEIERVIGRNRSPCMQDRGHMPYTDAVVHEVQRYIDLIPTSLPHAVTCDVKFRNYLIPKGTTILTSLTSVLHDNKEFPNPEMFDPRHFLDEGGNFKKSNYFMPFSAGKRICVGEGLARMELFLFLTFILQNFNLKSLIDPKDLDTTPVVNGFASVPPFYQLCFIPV
Experiment: Cytochrome panel assay with activity outcomes. Panel member name: p450-cyp2c19 Compounds with AC50 equal or less than 10 uM are considered active
Format: functional
Details: read-out: AC50
I'd appreciate it if you could supply AC50 values for the items below.

Challenge: # get_value(readout= AC50, system= Cytochrome P450 2C19 (Homo sapiens, UniProt P33261)) for CCOC(=O)c1ccc(-c2ccc(/C=C(\C#N)C(=O)NCC3CCCO3)o2)cc1 (stereo not given)
Response given: 2.51 µM (inconclusive)

Challenge: Provide value of AC50 for this record tested with Cytochrome P450 2C19 (Homo sapiens, UniProt P33261): O=C(CCN1C(=O)/C(=C/c2cccc(Br)c2)SC1=S)NNC(=O)c1cccnc1
Response given: 1.58 µM (inconclusive)

Challenge: Quick check: AC50 on Cytochrome P450 2C19 (Homo sapiens, UniProt P33261), item OCCNc1nc(NCCC2=CCCCC2)nc(N2CCOCC2)n1 ?
Response given: 15.8 µM (inconclusive)

Challenge: Request - read-out AC50 | tested on Cytochrome P450 2C19 (Homo sapiens, UniProt P33261) | compound CCC(=O)Nc1ccc(C(=O)OCC(=O)c2ccc(C)c([N+](=O)[O-])c2)cc1
Response given: 11.2 µM (inconclusive)

Challenge: Notebook entry, Cytochrome P450 2C19 (Homo sapiens, UniProt P33261) assay: AC50 of CC(C)c1c(CN(C)[C@@H](C)Cc2ccccc2)n(C)n(-c2ccccc2)c1=O = ?
Response given: 15.8 µM (inconclusive)

###

System: P388/ADR
Assay: cells
Assay type: functional
Conditions: Mus musculus
Activity calls are given as the source filed them.
Log the outcome using a class from 1.0 for active, 0.0 for inactive

Challenge: So what was the verdict on CNC=O in this test?
Response given: 0.0

Challenge: Recorded test call requested for CO[C@H]1Nc2c(ccc(C)c2O)C(=O)N2C=C(/C=C/C(N)=O)C[C@@H]12
Response given: 1.0

Challenge: // outcome(item) with item = OC[C@H]1O[C@@H](n2cnc3cncnc32)[C@H](O)[C@@H]1O
Response given: 1.0

Challenge: Recorded test outcome, item C=C1C(C)C2C(Cc3ccccc3)NC(=O)C23OC(=O)/C=C\CC(=O)CCC(C)C/C=C/C3C1O (centres undefined)
Response given: 1.0

###

Molecular target: Heat shock factor protein 1 (Mus musculus, UniProt P38532)
Sequence (P38532 whole entry): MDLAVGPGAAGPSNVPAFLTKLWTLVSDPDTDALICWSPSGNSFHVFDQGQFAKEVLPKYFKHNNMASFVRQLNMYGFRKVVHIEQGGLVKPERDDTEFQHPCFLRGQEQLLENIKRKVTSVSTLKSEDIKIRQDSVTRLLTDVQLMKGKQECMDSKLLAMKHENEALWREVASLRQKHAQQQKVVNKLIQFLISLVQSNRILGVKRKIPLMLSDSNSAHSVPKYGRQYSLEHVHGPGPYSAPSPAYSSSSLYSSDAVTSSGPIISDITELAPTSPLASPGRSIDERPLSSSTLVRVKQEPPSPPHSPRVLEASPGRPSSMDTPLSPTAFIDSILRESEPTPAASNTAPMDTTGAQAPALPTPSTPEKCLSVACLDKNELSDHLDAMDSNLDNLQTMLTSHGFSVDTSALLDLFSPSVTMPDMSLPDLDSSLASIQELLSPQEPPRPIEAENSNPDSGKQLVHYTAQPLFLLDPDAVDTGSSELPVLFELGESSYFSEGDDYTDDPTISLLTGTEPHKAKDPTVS
Test: decrease of HSF1-responsive luciferase luminescence – cell-based, NIH3T3, dose retest, confirmation (AID 2382);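 further: NIH3T3 fibroblasts with HSF1-driven luciferase reporter stressed by proteasome inhibitor MG132; luminescence from HSF1-driven luciferase expression after 8 hours of MG132 stress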
Assay type: functional
Calls of active or inactive are those of the source.
Assay readout: EC50

Challenge: Heat shock factor protein 1 (Mus musculus, UniProt P38532) / EC50 / C/C(=N\O)C1CCCCC1 : value?
Response given: > 195 µM (not active)

Challenge: Form: Entry = C(#Cc1ccccc1)CN1CCN(c2ccccn2)CC1 | System = Heat shock factor protein 1 (Mus musculus, UniProt P38532) | EC50 = ____
Response given: > 195 µM (not active)

Challenge: Query for Heat shock factor protein 1 (Mus musculus, UniProt P38532): what EC50 does the record show for NC(=O)C1CCCN(C(=O)c2ccc3oc(Cc4ccc(Cl)cc4)nc3c2)C1 (stereo not drawn) ?
Response given: > 195 µM (not active)

Challenge: Identify the measured EC50 of CCc1ccc(NC(=O)C2C3CCC(O3)C2C(=O)O)cc1 (stereo not drawn) for Heat shock factor protein 1 (Mus musculus, UniProt P38532).
Response given: 67 µM (active)

Challenge: Give recorded EC50 with Heat shock factor protein 1 (Mus musculus, UniProt P38532) for the following molecule: CC(=O)c1ccc(NC(=O)C2CCN(S(=O)(=O)c3cccc4cccnc34)CC2)cc1
Response given: > 195 µM (not active)

Challenge: Please tell me: EC50 of O=C(CCNS(=O)(=O)c1cccc2nsnc12)NCc1cccs1 , system Heat shock factor protein 1 (Mus musculus, UniProt P38532)?
Response given: > 195 µM (not active)

Challenge: Under Heat shock factor protein 1 (Mus musculus, UniProt P38532): EC50 value of COC(=O)c1ccccc1NC(=O)CSc1nnc(C(CO)NC(=O)c2ccccc2)n1C (stereo not drawn) ?
Response given: > 195 µM (not active)

Challenge: Tell me reported EC50 for O=C(Nc1ccccc1N1CCCC1)c1cccnc1Cl , tested with Heat shock factor protein 1 (Mus musculus, UniProt P38532).
Response given: > 195 µM (not active)

Challenge: Given the entry CCC(=O)N1CCN(c2ccc(NC(=O)c3ccc([N+](=O)[O-])o3)cc2)CC1 , what EC50 was observed with Heat shock factor protein 1 (Mus musculus, UniProt P38532)?
Response given: > 195 µM (not active)

Challenge: EC50 of CNC[C@H](Cc1ccccc1)NC[C@@H](Cc1cccc2ccccc12)NCCc1ccc(C)cc1 on Heat shock factor protein 1 (Mus musculus, UniProt P38532)?
Response given: 18.5 µM (active)

Challenge: What value of EC50 on Heat shock factor protein 1 (Mus musculus, UniProt P38532) does CCc1ccccc1N(CC(=O)N1CCCC1)S(C)(=O)=O have?
Response given: > 195 µM (not active)

Challenge: Return EC50 measured with Heat shock factor protein 1 (Mus musculus, UniProt P38532) given this molecule: Cc1c(C(=O)c2no[n+]([O-])c2C(=O)c2cnn(C)c2C)cnn1C
Response given: 5.9 µM (active)

Challenge: Lookup: EC50 / Heat shock factor protein 1 (Mus musculus, UniProt P38532) / O=C(O)CCSc1ncnc2sc(-c3ccccc3)cc12
Response given: 0.643 µM (active)

Challenge: Kindly state the measured EC50 obtained for Nc1nc2n(c1C(=O)c1ccccc1)CCC2 with Heat shock factor protein 1 (Mus musculus, UniProt P38532).
Response given: 78 µM (active)

Challenge: Short answer please: EC50, Heat shock factor protein 1 (Mus musculus, UniProt P38532), entry O=C(CC(Nc1ccc(Cl)cc1Cl)C(=O)O)c1ccccc1 (stereo not drawn)
Response given: < 0.16 µM (active)

Challenge: Lookup: EC50 / Heat shock factor protein 1 (Mus musculus, UniProt P38532) / CC1(C)NC(=O)N(CC(O)CN(c2ccccc2)S(=O)(=O)c2ccc([N+](=O)[O-])cc2)C1=O (stereo not drawn)
Response given: > 195 µM (not active)

Challenge: EC50 of COc1cccc(C(=O)Nc2ccc(NC(=O)C3CC=CCC3C(=O)O)cc2)c1 (stereo not drawn) on Heat shock factor protein 1 (Mus musculus, UniProt P38532)?
Response given: > 195 µM (not active)

Challenge: Request - read-out EC50 | tested on Heat shock factor protein 1 (Mus musculus, UniProt P38532) | molecule COc1ccc(C2=NN(S(C)(=O)=O)C(c3cccs3)C2)cc1OC (stereo not drawn)
Response given: > 195 µM (not active)

Challenge: Enter reported EC50 observed with Heat shock factor protein 1 (Mus musculus, UniProt P38532) for CCN(c1ccccc1)S(=O)(=O)c1ccc(Cl)c(NC(=O)CSc2nnc(C)s2)c1
Response given: > 195 µM (not active)

Challenge: Lookup: EC50 / Heat shock factor protein 1 (Mus musculus, UniProt P38532) / COc1cc(C(=O)N2CCSCC2)ccc1OC1CCN(C(C)=O)CC1
Response given: > 195 µM (not active)

Challenge: So what EC50 did COc1ccc(OC)c(/N=C2\SCCCN2C(=O)c2ccc(N3C(=O)CCC3=O)cc2)c1 get with Heat shock factor protein 1 (Mus musculus, UniProt P38532)?
Response given: > 195 µM (not active)

Challenge: What is its EC50 for Heat shock factor protein 1 (Mus musculus, UniProt P38532)? Entry: C/C(CC(=O)Nc1ccccc1C(F)(F)F)=N\NC(=O)c1cnccn1
Response given: > 195 µM (not active)

Challenge: Item: CCn1c(C(C#N)/C(=N\S(=O)(=O)c2cccs2)c2ccccc2)nc2ccccc21 (stereo not drawn) Test system: Heat shock factor protein 1 (Mus musculus, UniProt P38532) Read-out: EC50 Value: ?
Response given: > 195 µM (not active)

Values compiled from ChEMBL document CHEMBL1201862.
